- target_of_assay: human mAChR M4 (Homo sapiens)
- Construct: expressed in transfected cells
- test: mAChR M4 cell-based functional assay (calcium mobilization, CHO-K1 hM4-Gqi5 cells)
- setup_conditions: CHO-K1, % ACh maximum at 30 μM; human M4
quantity_name: Emax at 30 µM (%)
Dear colleague, please return just the value in %, with no unit written.

Tell me the measured Emax at 30 µM of Cc1cc(Nc2cnc3c(c2)CN(c2ncc(C#N)cc2C)CC3)n(C(C)C)n1 , please.
57

====

- target_of_assay: human mAChR M4 (Homo sapiens, UniProt P08173)
- Construct: expressed in transfected cells
- Sequence (P08173 whole entry): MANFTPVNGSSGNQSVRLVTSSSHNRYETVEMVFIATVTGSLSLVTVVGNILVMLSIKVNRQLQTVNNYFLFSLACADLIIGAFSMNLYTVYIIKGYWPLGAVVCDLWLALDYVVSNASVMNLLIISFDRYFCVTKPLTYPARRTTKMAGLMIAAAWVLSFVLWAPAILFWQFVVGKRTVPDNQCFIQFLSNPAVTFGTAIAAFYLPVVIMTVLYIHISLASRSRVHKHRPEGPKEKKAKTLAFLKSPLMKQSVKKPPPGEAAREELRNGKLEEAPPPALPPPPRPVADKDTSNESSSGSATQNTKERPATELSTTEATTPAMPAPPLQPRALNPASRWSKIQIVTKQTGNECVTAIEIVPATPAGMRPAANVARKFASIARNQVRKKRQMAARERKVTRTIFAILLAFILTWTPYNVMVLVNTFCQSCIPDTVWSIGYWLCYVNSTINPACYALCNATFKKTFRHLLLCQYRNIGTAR
- test: mAChR M4 cell-based functional assay (calcium mobilization, CHO-K1 hM4-Gqi5 cells)
- setup_conditions: positive allosteric modulator activity, increase in the EC20 acetylcholine response, CHO-K1 hM4-Gqi5 cells; read-out: Human M4 EC50
quantity_name: log10 EC50 (log10 of the value in nM)
Hi team, quick reminder: these entries are log10 of EC50 (nM).

compound | log10 EC50
Cc1nc(Cl)c(C)c(N2CCc3ncc(-c4cnn(C)c4)cc3C2)n1 [compound 92] | 2.34

Please report the recorded log10 EC50 for Cc1cc(C#N)cnc1N1CCc2ncc(Nc3ccncc3F)cc2C1 [Example 599] .
0.85

Please give the measured log10 EC50 for this compound: COC1CN(C(=O)c2cc(C)c(N3CCc4ncc(CC(F)(F)F)cc4C3)nn2)C1 [Example 589]
2.24

Item under review: Cc1cc(C)n(-c2cnc3c(c2)CN(c2ncc(C#N)cc2C)CC3)n1 [Example 346] . Reported log10 EC50?
3.11

// lookup log10 EC50 for Cc1nc(C)c(C)c(N2CCc3ncc(-c4ccc(F)nc4)cc3C2)n1 [compound 229]
2.52
